Tested on: U937 cells
Assay: Cell growth inhibitory effect, U937 cells (WST-8, 72 hours)
Details: Homo sapiens, U-937, 72 h, read-out: U937 cells (IC50 value: μM)
READOUT NAME: IC50 (µM)

Consider the reported IC50 for these molecules:
{"SMILES TEXT": "Cc1ccc(NC(=O)c2ccc(CN3CCN(C)CC3)c(Br)c2)cc1Nc1nccc(-c2cnccn2)n1", "IC50 [µM]": 6.51}
{"SMILES TEXT": "Cc1ccc(NC(=O)c2ccc(CN3CCN(C)CC3)c(C(F)(F)F)c2)cc1Nc1nccc(-c2cccnc2)n1", "IC50 [µM]": 3.99}
{"SMILES TEXT": "Cc1ccc(NC(=O)c2ccc(CN3CCN(C)CC3)c(Br)c2)cc1Nc1nccc(-c2cccnc2)n1", "IC50 [µM]": 4.8}

[P] Cc1ccc(NC(=O)c2cc(Br)c(CN3CCN(C)CC3)c(Br)c2)cc1Nc1nccc(-c2cccnc2)n1
[Q] Cc1ccc(NC(=O)c2ccc(CN3CCN(C)CC3)c(Br)c2)cc1Nc1nncc(-c2cccnc2)n1
q: I'm curious, which of these has a smaller IC50 number: P or Q ? In your reply, give the label of the chosen option.
a: Q
(Q: 1.82 µM, P: 7.29 µM)
